test: NCI Yeast Anticancer Drug Screen. Data for the rad50 strain (AID 155);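 note: 0% = growth of vehicle-only cultures of the same strain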; conditions: S. cerevisiae rad50 strain growth inhibition; at 50.0 µM
The panel holds about 79,000 compounds, 15% with a hit somewhere; the sample as a whole holds those more often. Activity calls are given as the source filed them. Cut-off read from the data, not from the text of the source: active = growth inhibition above about 70%; inactive = the rest.
Outcomes: 1 (yes) = active, 0 (no) = inactive

[[record]]
molecule = "N=C(N)SCc1cn2ccccc2n1"
class = "0 (no)"

[[record]]
molecule = "O=C1CSC(=S)N1Nc1ccccc1"
class = "0 (no)"

[[record]]
molecule = "C=CS(=O)(=O)c1ccc(NC(=O)Nc2ccc(Cl)cc2)cc1"
class = "0 (no)"

[[record]]
molecule = "O=C1/C(=C/c2ccc(O)cc2)CCc2ccc([N+](=O)[O-])cc21"
class = "0 (no)"

[[record]]
molecule = "CCCCCC(CCCCC)c1ccccn1"
class = "0 (no)"

[[record]]
molecule = "CC(=O)Nc1ccc(O)c(C(=O)O)c1"
class = "0 (no)"

[[record]]
molecule = "COc1ccc2nc3cc(Cl)ccc3c(Nc3ccc(C(O)CCN(C)C)cc3)c2c1 (stereo not given)"
class = "0 (no)"

[[record]]
molecule = "CN(/N=C\\c1ccc([N+](=O)[O-])cc1)C(=O)c1ccccc1"
class = "0 (no)"

[[record]]
molecule = "Cc1nc(NCCNCCO)nc2c1C(=O)Nc1ccccc1N2"
class = "0 (no)"

[[record]]
molecule = "O=[N+]([O-])c1ccc(N/N=C/c2ccccc2O)c([N+](=O)[O-])c1"
class = "0 (no)"

[[record]]
molecule = "[NH-]C(CC(N)=O)C(=O)O.[NH-]C(CC(N)=O)C(=O)O.[Zn+2] (stereo not given)"
class = "0 (no)"

[[record]]
molecule = "CN1C(=O)c2ccccc2Cc2c(Cl)ncnc21"
class = "0 (no)"

[[record]]
molecule = "O=c1cc[nH]c2ccc(Cl)cc12"
class = "0 (no)"

[[record]]
molecule = "CN(C)C(=O)C1C2CC3OC(=O)C1C3C2 (stereo not given)"
class = "0 (no)"

[[record]]
molecule = "O=C1Nc2n[nH]c(=S)n2NC12c1ccccc1-c1ccccc12"
class = "0 (no)"

[[record]]
molecule = "Cc1ccc(C#N)c2c1CCC2"
class = "0 (no)"

[[record]]
molecule = "NC1=NC(c2ccccc2O)CC(=O)N1 (stereo not given)"
class = "0 (no)"

[[record]]
molecule = "CCOC(=O)c1nc2c([nH]1)c(=O)n(C)c(=O)n2C"
class = "0 (no)"

[[record]]
molecule = "O=C(Cc1ccccc1)N/N=C\\Cc1ccccc1"
class = "0 (no)"

[[record]]
molecule = "CC(O)C(NC(=O)c1cnc(OCc2ccccc2)nc1N)C(=O)O (stereo not given)"
class = "0 (no)"

[[record]]
molecule = "Cc1ncc([N+](=O)[O-])n1CCSC(N)=O"
class = "0 (no)"

[[record]]
molecule = "O=C([O-])C[n+]1ccccc1"
class = "0 (no)"

[[record]]
molecule = "CCC(C)C(=O)/C=C/c1ccccc1 (stereo not given)"
class = "0 (no)"

[[record]]
molecule = "CC1CCCCC12COC(O)CO2 (stereo not given)"
class = "0 (no)"

[[record]]
molecule = "c1ccc(Sc2cccc3c(-c4ccccc4)c4cccc5c4c(c23)C[S+]5c2ccccc2)cc1 (stereo not given)"
class = "1 (yes)"

[[record]]
molecule = "CCc1nc(Nc2cccc(Cl)c2)c2cnn(-c3ccccc3)c2n1"
class = "0 (no)"

[[record]]
molecule = "CCCCCC(=O)NC1CCCCC1"
class = "0 (no)"

[[record]]
molecule = "CNC(=O)Nc1ccc(OC)cc1OC"
class = "0 (no)"

[[record]]
molecule = "Nc1nc2nn(-c3ccc(C(=O)NC(CCC(=O)O)C(=O)O)cc3)nc2c(=O)[nH]1 (stereo not given)"
class = "0 (no)"

[[record]]
molecule = "Cc1cc(C)c2c(c1)CC(C)(C)C(=O)OC2=O"
class = "0 (no)"

[[record]]
molecule = "ClCC1CCCO1 (stereo not given)"
class = "0 (no)"

[[record]]
molecule = "OCC(O)COCCCCCCCCCCCCCC1C=CCC1 (stereo not given)"
class = "0 (no)"

[[record]]
molecule = "CCOC(=O)Cn1c(=O)n(C)c(=O)c2c1ncn2Cc1ccccc1"
class = "0 (no)"

[[record]]
molecule = "Cc1ccc(Cl)cc1NC(=O)Oc1ccccc1C(=O)OCc1ccccc1"
class = "0 (no)"

[[record]]
molecule = "CCCCCCCC/C=C\\CCCCCCCC(=O)Cl"
class = "0 (no)"

[[record]]
molecule = "COC=C(C(=O)OC)C(=O)OC"
class = "0 (no)"

[[record]]
molecule = "O=C1CCCC2C1C1CCCC(=O)C21 (stereo not given)"
class = "0 (no)"

[[record]]
molecule = "CC1CCCN(P(c2ccccc2)N2CCCC(C)C2)C1 (stereo not given)"
class = "0 (no)"

[[record]]
molecule = "C=C(C)c1nn(-c2ccccc2)c2c1C(=O)CC(C)O2 (stereo not given)"
class = "0 (no)"

[[record]]
molecule = "CCCCCCCCCCCCS(=O)(=O)O (tested in a mixture with another compound)"
class = "0 (no)"

[[record]]
molecule = "O=C(NCCCCN1CCCC1)C(c1cc2ccccc2s1)C1CCCCC1 (stereo not given)"
class = "0 (no)"

[[record]]
molecule = "COc1cc(-c2ccc(Br)[nH]2)[nH]c1C=NCC(C)C"
class = "1 (yes)"

[[record]]
molecule = "CC(=O)OCC(=O)O[C@@H]1[C@H]2[C@@H](OC(=O)c3ccccc3)[C@@H](C)C[C@]2(O)[C@H](OC(C)=O)[C@@]2(C)C[C@]1(OC(C)=O)C[C@H]1C(=O)C(C)(C)[C@@H](OC(C)=O)[C@@H]12"
class = "0 (no)"

[[record]]
molecule = "CC1CC(NC(=O)/C=C/C(=O)O)CC(C)(C)C1 (stereo not given)"
class = "0 (no)"

[[record]]
molecule = "COC(=O)C1(C(C)C(=O)c2ccc(Cl)cc2)NC(=S)NC(=O)C1C#N (stereo not given)"
class = "0 (no)"

[[record]]
molecule = "CC1=CCCCC1"
class = "0 (no)"

[[record]]
molecule = "CCOCCOCCOCOCCOCCOCC"
class = "0 (no)"

[[record]]
molecule = "Oc1ccccc1/C=N\\Sc1ccc(Br)cc1"
class = "0 (no)"

[[record]]
molecule = "Cc1ccc[n+]([O-])c1Cl"
class = "0 (no)"

[[record]]
molecule = "O=C(COc1cccc(Cl)c1)Nc1ccccc1"
class = "0 (no)"

